# protocol: Induction of mitotic arrest in human RPE cells over expressing H2B-GFP-fused MYC assessed as increase in polyploidy at 40 uM measured after 24 to 72 hrs by fluorescence microscopy
# Format: functional
# condition-summary: time 24-72 hrs
// map Activity to label using group 1 (below 30%), group 2 (30% to below 70%), group 3 (70% or more)

Past entries and their recorded results:
# compound-structure-string, class-name
measured = [
    ("COC(=O)C1=C(O)c2ccccc2N(Cc2ccc(C(C)(C)C)cc2)C(=O)C1", "group 1"),
    ("COC(=O)C1=C(O)c2ccccc2N(Cc2ccccc2)C(=O)C1", "group 2"),
    ("COC(=O)C1=C(O)c2ccccc2N(Cc2ccc(F)cc2)C(=O)C1", "group 2"),
    ("COC(=O)C1=C(O)c2ccccc2N(Cc2ccc(C)cc2)C(=O)C1", "group 1"),
]

*Q* Form field 'band' for COC(=O)C1=C(O)c2cc(OC)c(OC)cc2N(Cc2ccc(C)c(F)c2)C(=O)C1
*A* group 3

*Q* Form field 'band' for COC(=O)C1=C(O)c2ccccc2N(Cc2cccc(C)c2)C(=O)C1
*A* group 1

*Q* Form field 'band' for COC(=O)C1=C(O)c2scc(C)c2N(Cc2ccc(C)c(F)c2)C(=O)C1
*A* group 3

*Q* Form field 'band' for COC(=O)C1=C(O)c2ccccc2N(Cc2ccc(C)cc2C)C(=O)C1
*A* group 3

*Q* Form field 'band' for COC(=O)C1=C(O)c2ccccc2N(Cc2ccc(OC)cc2)C(=O)C1
*A* group 3

*Q* Form field 'band' for COC(=O)C1=C(O)c2cc(F)ccc2N(Cc2ccc(C)c(F)c2)C(=O)C1
*A* group 2

*Q* Form field 'band' for COC(=O)C1=C(O)c2ccccc2N(Cc2cccc(F)c2)C(=O)C1
*A* group 2

*Q* Form field 'band' for COC(=O)C1=C(O)c2ccccc2N(Cc2ccc(C#N)cc2)C(=O)C1
*A* group 1

*Q* Form field 'band' for CCc1ccc(CN2C(=O)CC(C(=O)OC)=C(O)c3ccccc32)cc1
*A* group 1

*Q* Form field 'band' for COC(=O)C1=C(O)c2ccccc2N(Cc2ccc(C)c(Cl)c2)C(=O)C1
*A* group 3

*Q* Form field 'band' for COC(=O)C1=C(O)c2ccccc2N(Cc2cccc(OC)c2)C(=O)C1
*A* group 1

*Q* Form field 'band' for COC(=O)C1=C(O)c2ccccc2N(Cc2ccc(C)c(C)c2)C(=O)C1
*A* group 2
